Value source: patent US20170022281A1

Biological target: T1, cyno PRLR (Biacore antigen) (cyno, UniProt A0A2K5WXK1 25-234)
T1 construct: also called cyPRLR
T1 sequence: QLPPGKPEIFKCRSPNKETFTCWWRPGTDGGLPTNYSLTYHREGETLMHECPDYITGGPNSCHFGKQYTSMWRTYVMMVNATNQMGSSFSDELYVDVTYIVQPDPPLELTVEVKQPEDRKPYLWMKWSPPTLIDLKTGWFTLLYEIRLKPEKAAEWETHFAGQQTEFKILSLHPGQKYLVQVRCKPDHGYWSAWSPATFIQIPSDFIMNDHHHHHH
Assay: SPR Biacore
experimental_endpoint: kon (M⁻¹ s⁻¹)
# unit: M⁻¹ s⁻¹ | format: bare number

// known answers, use as guide
| binder | result_value |
| --- | --- |
| chAb8 (antibody, human IgG1, kappa, V domains shown, chimeric, murine variable and human G1/kappa constant regions) VH: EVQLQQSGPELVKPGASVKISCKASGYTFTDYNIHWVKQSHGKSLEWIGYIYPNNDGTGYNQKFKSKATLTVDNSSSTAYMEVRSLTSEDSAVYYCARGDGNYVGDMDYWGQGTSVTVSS VL: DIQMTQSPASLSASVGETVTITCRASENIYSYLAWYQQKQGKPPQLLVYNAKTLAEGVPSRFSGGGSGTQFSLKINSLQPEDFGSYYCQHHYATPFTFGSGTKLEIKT | 514000 |
| Ab7 (antibody, V domains shown, murine monoclonal, isotype G1; also called murine Ab7) VH: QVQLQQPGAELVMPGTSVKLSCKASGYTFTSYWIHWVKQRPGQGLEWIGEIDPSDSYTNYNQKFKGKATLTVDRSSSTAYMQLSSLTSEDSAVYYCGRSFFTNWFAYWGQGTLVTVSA VL: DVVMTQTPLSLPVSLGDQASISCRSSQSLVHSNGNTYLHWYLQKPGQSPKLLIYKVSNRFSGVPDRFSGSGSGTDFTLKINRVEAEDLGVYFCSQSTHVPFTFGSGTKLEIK | 259000 |
| Ab27 (antibody, human IgG1, kappa, V domains shown, humanized from Ab5; G1; also called Ab2 HC.1 and Ab2 LC.1a) VH: EVQLVQSGAEVKKPGSSVKVSCKASGYTFTSFWMHWVRQAPGQGLEWMGVIDPSDTYTNYNQKFKGRVTITADESTSTAYMELSSLRSEDTAVYYCARGDYSNWFTYWGQGTLVTVSS VL: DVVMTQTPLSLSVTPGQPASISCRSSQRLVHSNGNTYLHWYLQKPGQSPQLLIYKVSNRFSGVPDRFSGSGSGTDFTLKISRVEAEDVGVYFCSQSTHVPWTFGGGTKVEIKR | 333000 |
| Ab39 (antibody, human IgG1, kappa, V domains shown, humanized from Ab7; G1; also called Ab4 HC.1a and Ab4 LC.1a) VH: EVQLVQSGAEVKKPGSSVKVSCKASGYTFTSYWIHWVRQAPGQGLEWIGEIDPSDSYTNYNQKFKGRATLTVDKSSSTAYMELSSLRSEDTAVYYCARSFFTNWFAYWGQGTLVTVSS VL: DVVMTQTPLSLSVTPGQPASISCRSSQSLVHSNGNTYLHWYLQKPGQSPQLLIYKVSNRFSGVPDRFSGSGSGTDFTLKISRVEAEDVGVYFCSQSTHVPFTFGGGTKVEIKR | 153000 |

Item: Ab5 (antibody, V domains shown, murine monoclonal, isotype G2a; also called murine Ab5) VH: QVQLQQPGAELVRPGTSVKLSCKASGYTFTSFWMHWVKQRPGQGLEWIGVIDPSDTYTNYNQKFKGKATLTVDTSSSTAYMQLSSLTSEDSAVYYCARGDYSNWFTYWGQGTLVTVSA VL: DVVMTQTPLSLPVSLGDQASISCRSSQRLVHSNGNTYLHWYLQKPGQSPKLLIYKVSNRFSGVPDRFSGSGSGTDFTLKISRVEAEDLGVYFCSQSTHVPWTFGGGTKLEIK | kon: 336000
